target: UniProt:P09917; test: Inhibition of human recombinant 5-lipoxygenase
ASSAY METRIC: IC50 (µM)
The reply should contain only the number, in µM.

Query: IC50; subject: O=C(Nc1ccc(Nc2cc(Cl)nc(SC(C(=O)O)c3cccc4ccccc34)n2)cc1)c1ccccc1 (centres undefined)
5.2

Try this compound too: O=C(O)C(Sc1nc(Cl)cc(Nc2ccc(Oc3ccccc3)cc2)n1)c1cccc2ccccc12 (centres undefined)
3.1

Try this compound too: Cc1ccc(Nc2cc(Cl)nc(SC(C(=O)O)c3cccc4ccccc34)n2)cc1C (centres undefined)
8.5

Try this compound too: O=C(O)C(Sc1nc(Cl)cc(Nc2ccc3c(c2)CCC3)n1)c1cccc2ccccc12 (centres undefined)
4.2

* * *

biological target: Polyunsaturated fatty acid 5-lipoxygenase (Homo sapiens, UniProt P09917); experiment: Inhibition of human recombinant 5-lipoxygenase
Sequence (P09917 whole entry): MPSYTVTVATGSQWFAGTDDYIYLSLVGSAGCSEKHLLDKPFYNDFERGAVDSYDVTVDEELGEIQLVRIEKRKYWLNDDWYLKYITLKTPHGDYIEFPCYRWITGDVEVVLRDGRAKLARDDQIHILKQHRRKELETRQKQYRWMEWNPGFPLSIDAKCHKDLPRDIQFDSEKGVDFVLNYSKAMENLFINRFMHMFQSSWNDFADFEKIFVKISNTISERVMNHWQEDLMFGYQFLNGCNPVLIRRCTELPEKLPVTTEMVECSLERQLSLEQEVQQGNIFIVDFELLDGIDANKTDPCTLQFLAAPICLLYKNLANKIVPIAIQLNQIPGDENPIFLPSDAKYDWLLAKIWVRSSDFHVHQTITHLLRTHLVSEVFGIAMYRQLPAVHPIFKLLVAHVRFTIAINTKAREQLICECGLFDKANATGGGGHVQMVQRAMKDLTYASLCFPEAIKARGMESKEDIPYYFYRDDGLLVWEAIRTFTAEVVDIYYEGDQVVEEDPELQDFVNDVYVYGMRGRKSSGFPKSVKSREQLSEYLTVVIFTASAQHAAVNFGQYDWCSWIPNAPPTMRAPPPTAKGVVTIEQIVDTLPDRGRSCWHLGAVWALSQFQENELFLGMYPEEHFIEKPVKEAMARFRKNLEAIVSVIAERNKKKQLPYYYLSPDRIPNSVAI
Examples of compounds with documented pIC50 follow.
To interpret pIC50, take it as minus log10 of a concentration measured in moles per litre.

Sample answers from the record:
# COMPOUND, pIC50
data = [
    ("CC(C)c1ccc(Nc2cc(Cl)nc(SC(C(=O)O)c3cccc4ccccc34)n2)cc1 (configuration not stated)", 5.24),
    ("O=C(O)C(Sc1nc(Cl)cc(Nc2ccc(Cl)cc2)n1)c1cccc2ccccc12 (configuration not stated)", 5.05),
    ("O=C(O)C(Sc1nc(Cl)cc(Nc2ccc3c(c2)Cc2ccccc2-3)n1)c1cccc2ccccc12 (configuration not stated)", 5.80),
]

Query: pIC50; subject: O=C(O)C(Sc1nc(Cl)cc(Nc2ccc(-c3ccccc3)cc2)n1)c1cccc2ccccc12 (configuration not stated)
5.64

Try this compound too: O=C(O)C(Sc1nc(Cl)cc(Nc2ccc(C3CCCCC3)cc2)n1)c1cccc2ccccc12 (configuration not stated)
5.70

Try this compound too: O=C(O)C(Sc1nc(Cl)cc(Nc2ccc(Cc3ccccc3)cc2)n1)c1cccc2ccccc12 (configuration not stated)
5.66

Try this compound too: O=C(O)C(Sc1nc(Cl)cc(Nc2cccc(-c3ccccc3)c2)n1)c1cccc2ccccc12 (configuration not stated)
5.30

* * *

target: Polyunsaturated fatty acid 5-lipoxygenase (Homo sapiens); test: Inhibition of human recombinant 5-lipoxygenase
// classify: if (IC50 < 3000 nM) Condition met else Condition not met

As a guide, the following entries are already answered.
# MOLECULE, ASSIGNED CLASS
data = [
    ("O=C(O)C(Sc1nc(Cl)cc(Nc2cccc(Cl)c2)n1)c1cccc2ccccc12 (stereo not given)", "Condition not met"),
    ("N#Cc1ccc(-c2ccc(Nc3cc(Cl)nc(SC(C(=O)O)c4cccc5ccccc45)n3)cc2)cc1 (stereo not given)", "Condition met"),
    ("CC(C)(C)c1cc(Nc2cc(Cl)nc(SC(C(=O)O)c3cccc4ccccc34)n2)cc(C(C)(C)C)c1 (stereo not given)", "Condition met"),
]

Pending molecule:
Does the reported IC50 of the following molecule sit strictly below 3000 nM? O=C(O)C(Sc1nc(Cl)cc(Nc2ccc3ccccc3c2)n1)c1cccc2ccccc12 (stereo not given)
Condition met
